These data points were gathered from paper PMC9599757.

measurement target: DNAJA1 (Homo sapiens, UniProt P31689)
pKd: −log10 of the molar value.
Entries annotated with measured pKd
test readout: pKd

INSERT INTO measurements (compound, assay_result) VALUES
  ('O=C(c1ccc(Br)s1)N1CCN(c2ccc(F)cc2)CC1 [compound 9101204]', 7.00),
  ('CCOc1ccc(-c2cc(OC(=O)c3cccs3)c3c(C)oc(C)c3c(=O)c2)cc1 [compound 7727968]', 5.00);
